Molecular target: Receptor-type tyrosine-protein kinase FLT3 (Homo sapiens) (UniProt P36888)
Sequence (P36888 whole entry): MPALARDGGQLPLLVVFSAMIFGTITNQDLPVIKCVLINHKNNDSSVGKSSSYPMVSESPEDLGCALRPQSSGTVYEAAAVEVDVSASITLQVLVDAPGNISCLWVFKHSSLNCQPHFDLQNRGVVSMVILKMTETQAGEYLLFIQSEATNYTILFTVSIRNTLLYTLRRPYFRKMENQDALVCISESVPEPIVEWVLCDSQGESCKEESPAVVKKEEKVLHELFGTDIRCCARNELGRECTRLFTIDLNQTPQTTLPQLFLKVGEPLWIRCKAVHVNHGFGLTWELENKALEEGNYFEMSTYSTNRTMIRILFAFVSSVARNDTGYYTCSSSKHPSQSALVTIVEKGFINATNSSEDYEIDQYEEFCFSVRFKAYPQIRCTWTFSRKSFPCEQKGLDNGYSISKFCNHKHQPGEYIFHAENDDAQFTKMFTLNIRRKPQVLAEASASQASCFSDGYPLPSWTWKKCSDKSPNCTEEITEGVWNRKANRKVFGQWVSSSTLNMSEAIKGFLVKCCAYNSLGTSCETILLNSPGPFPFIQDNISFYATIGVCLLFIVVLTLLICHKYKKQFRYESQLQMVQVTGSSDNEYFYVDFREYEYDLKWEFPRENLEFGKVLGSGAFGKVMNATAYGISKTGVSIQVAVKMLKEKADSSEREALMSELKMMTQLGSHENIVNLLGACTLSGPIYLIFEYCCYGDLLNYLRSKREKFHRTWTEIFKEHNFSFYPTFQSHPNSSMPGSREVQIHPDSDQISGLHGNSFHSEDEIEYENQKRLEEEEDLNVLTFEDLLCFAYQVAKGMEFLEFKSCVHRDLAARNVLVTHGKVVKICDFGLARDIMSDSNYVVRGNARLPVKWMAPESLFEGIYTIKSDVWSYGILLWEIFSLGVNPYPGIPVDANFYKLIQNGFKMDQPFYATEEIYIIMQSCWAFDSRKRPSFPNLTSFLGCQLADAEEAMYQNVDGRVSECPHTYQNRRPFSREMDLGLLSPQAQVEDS
Assay: Inhibition of FLT3 (unknown origin) at 50 nM by ADP Glo kinase assay relative to control
Assay readout: inhibition (%)

[A] O=C(NCc1cc[nH]c1)c1ccc(-c2nc3ccc4[nH]ncc4c3c3c2CCCC3)cc1
[B] O=C(NCc1ncc[nH]1)c1ccc(-c2nc3ccc4[nH]ncc4c3c3c2CCCC3)cc1
[C] O=C(NCCn1ccnc1)c1ccc(-c2nc3ccc4[nH]ncc4c3c3c2CCCC3)cc1
[D] Cn1ccnc1CNC(=O)c1ccc(-c2nc3ccc4[nH]ncc4c3c3c2CCCC3)cc1
### Prompt In a descending ranking, list each entry from above by its inhibition, from the largest value down to the smallest. List the labels in the requested order.
### Response B, A, C, D
(B: 76%, A: 46%, C: 31%, D: 14%)

[A] O=C(NCCc1ncc[nH]1)c1ccc(-c2nc3ccc4[nH]ncc4c3c3c2CCCC3)cc1
[B] O=C(NCc1c[nH]cn1)c1ccc(-c2nc3ccc4[nH]ncc4c3c3c2CCCC3)cc1
### Prompt Of the pair A and B , name the member with the lesser recorded inhibition. Provide the label of your selected option as the answer.
### Response B

[1] O=C(NCc1nnn[nH]1)c1ccc(-c2nc3ccc4[nH]ncc4c3c3c2CCCC3)cc1
[2] Cc1c[nH]c(CNC(=O)c2ccc(-c3nc4ccc5[nH]ncc5c4c4c3CCCC4)cc2)n1
### Prompt I'm curious whether 1 or 2 has the smaller inhibition number. Which is it? Give the label under which the chosen entry appears.
### Response 1
